system: 293T cells; assay: Cell survival rate determination (CCK-8); assay type: cell-based; conditions: difference of survival rates; comparator YK-320
Readings of cell survival rate higher than YK-320 for the listed compounds
REPORTED_ENDPOINT: cell survival rate higher than YK-320 (%)

CCCCCCCCC(CCCCCCCC)COC(=O)CCCCCN(CCCCCC(=O)OCC(CCCCCCCC)CCCCCCCC)C[C@H](O)CN(C)CCO    11.110
CCCCCCCCC(CCCCCCCC)COC(=O)CCCCCN(CCCCCC(=O)OCC(CCCCCCCC)CCCCCCCC)C[C@H](O)CN(CC)CCO    5.89
CCCCCCC(CCCCCC)CCOC(=O)CCCCCCN(CCCCCCC(=O)OCCC(CCCCCC)CCCCCC)C[C@H](O)CN(CCO)CCO    4.14
CCCCCCCCC(CCCCCCCC)OC(=O)CCCCCN(CCCCCC(=O)OC(CCCCCCCC)CCCCCCCC)C[C@H](O)CN(CCO)CCO    4.49
CCCCCCCCCCCOC(=O)CCCCCN(CCCC(=O)OCCCC(CCCCCCCCCC)CCCCCCCCCC)C[C@H](O)CN(CC)CCO    11.03

====

tested on: 293T cells; assay: Fluorescent detection of Fluc-mRNA (cell transfection efficiency of LNP formulations); type: cell-based; conditions: comparator YK-303
REPORTED_ENDPOINT: cell transfection efficiency, times that of YK-303

CCCCCCCCC(CCCCCCCC)COC(=O)CCCCCN(CCCCCC(=O)OCC(CCCCCCCC)CCCCCCCC)C[C@H](O)CN(CC)CCO    32.17 times
CCCCCCC(CCCCCC)CCOC(=O)CCCCCCN(CCCCCCC(=O)OCCC(CCCCCC)CCCCCC)C[C@H](O)CN(CCO)CCO    39.07 times
CCCCCCCCC(CCCCCCCC)OC(=O)CCCCCN(CCCCCC(=O)OC(CCCCCCCC)CCCCCCCC)C[C@H](O)CN(CCO)CCO    17.87 times
CCCCCCCCCCCOC(=O)CCCCCN(CCCC(=O)OCCCC(CCCCCCCCCC)CCCCCCCCCC)C[C@H](O)CN(CC)CCO    41.19 times
CCCCCCCCC(CCCCCCCC)COC(=O)CCCCCN(CCCCCC(=O)OCC(CCCCCCCC)CCCCCCCC)C[C@H](O)CN(C)CCO    43.76 times

====

tested on: 293T cells; assay: Fluorescent detection of Fluc-mRNA (cell transfection efficiency of LNP formulations); assay type: cell-based; conditions: RLU of YK-312 / RLU of the lipid of the line
Cut-off 9 on Multiples (YK-312), inclusive. At or above means class 1; below means class 0.

CCCCCCCCC(CCCCCCCC)OC(=O)CCCCCCCN(CCO)CCCCCCCC(=O)OCCC(CCCCCC)CCCCCC [Compound 21, reference compound]    class 1
CCCCCCCCCCCOC(=O)CCCCCN(CCCC(=O)OCCCC(CCCCCCCCCC)CCCCCCCCCC)C[C@H](O)CN(CC)CCO [YK-310]    class 0
CCCCCCCCCCCOC(=O)CCCCCN(CCO)CCCCCCCC(=O)OC(CCCCCCCC)CCCCCCCC [SM-102, reference compound]    class 1
CCCCCCCCCCOC(=O)CCCN(CCCCCC(=O)OCCC(CCCCCC)CCCCCC)C[C@H](O)CN(C)CCO [YK-302]    class 1
CCCCCCC(CCCCCC)CCOC(=O)CCCCCN(CCCCCC(=O)OCCC(CCCCCC)CCCCCC)C[C@H](O)CN(CCO)CCO [YK-317]    class 0

====

Test system: 293T cells
Assay: Fluorescent detection of Fluc-mRNA (cell transfection efficiency of LNP formulations)
Assay type: cell-based
Settings: RLU of YK-310 / RLU of the lipid of the line
Description: Cell recovery and passage: 293T cells were recovered, cultured in a culture dish, and passaged to the required number of cells. Seeding plate: The cells in the culture dish were digested and counted. Cells were spread in a 96-well plate at 10,000 cells per well and in a 12-well plate at 150,000 cells per well. Cells were cultured overnight until the cells adhered to the wall. Cell recovery and passage: the method was the same as in Example 3. Seeding plate: the method was the same as in Example 3. […]
REPORTED_ENDPOINT: Multiples (YK-310)

CCCCCCC(CCCCCC)CCOC(=O)CCCCCCN(CCCCCCC(=O)OCCC(CCCCCC)CCCCCC)C[C@H](O)CN(CCO)CCO    1.05
CCCCCCCCC(CCCCCCCC)COC(=O)CCCCCN(CCCCCC(=O)OCC(CCCCCCCC)CCCCCCCC)C[C@H](O)CN(C)CCO    0.94
CCCCCCCCC(CCCCCCCC)OC(=O)CCCCCN(CCCCCC(=O)OC(CCCCCCCC)CCCCCCCC)C[C@H](O)CN(CC)CCO    29.77
CCCCCCCCCCCOC(=O)CCCCCN(CCCC(=O)OCCCC(CCCCCCCCCC)CCCCCCCCCC)C[C@H](O)CN(CC)CCO    1.00
CCCCCCC(CCCCCC)CCOC(=O)CCCCCN(CCCCCC(=O)OCCC(CCCCCC)CCCCCC)C[C@H](O)CN(CCO)CCO    7.16
CCCCCCCCCCCOC(=O)CCCCCN(CCCCCC(=O)OCCCCCCCCCCC)C[C@H](O)CN(C)CCO    1247.08
CCCCCCCCCCOC(=O)CCCN(CCCCCC(=O)OCC(CCCCCCCC)CCCCCCCC)C[C@H](O)CN(CC)CCO    5.12
CCCCCCCCCCCCC(O)CN(C)CCCCCC(=O)OCC(CCCCCC)CCCCCCCC (centres unmarked) [HHMA, reference compound]    12.86
CCCCCCCCCCOC(=O)CCCN(CCCCCC(=O)OCCC(CCCCCC)CCCCCC)C[C@H](O)CN(CC)CCO    205.77
CCCCCCCCCCC(CCCCCCCCCC)CCCOC(=O)CCCN(CCCC(=O)OCCCC(CCCCCCCCCC)CCCCCCCCCC)C[C@H](O)CN(C)CCO    5.66
CCCCCCCCC(CCCCCCCC)OC(=O)CCCCCN(CCCCCC(=O)OC(CCCCCCCC)CCCCCCCC)C[C@H](O)CN(CCO)CCO    2.31
CCCCCCC(CCCCCC)CCOC(=O)CCCCCCCN(CCO)CCCCCCCC(=O)OCCC(CCCCCC)CCCCCC [Compound 23, reference compound]    19.02
CCCCCCCCCCOC(=O)CCCN(CCCCCC(=O)OCCC(CCCCCC)CCCCCC)C[C@H](O)CN(C)CCO    928.69
CCCCCCC(CCCCCC)CCOC(=O)CCCCCN(CCCCCC(=O)OCCC(CCCCCC)CCCCCC)C[C@H](O)CN(C)CCO    11.14

====

Readings of expression of mRNA in mice, times that of YK-302 for the listed compounds
test system: female BALB/C mice; assay: Live imaging in mice: protein expression of Fluc-mRNA delivered by LNP formulations; type: in vivo; conditions: 48 h; comparator YK-302
REPORTED_ENDPOINT: expression of mRNA in mice, times that of YK-302 (times)

CCCCCCCCC(CCCCCCCC)OC(=O)CCCCCN(CCCCCC(=O)OC(CCCCCCCC)CCCCCCCC)C[C@H](O)CN(CCO)CCO    348.11
CCCCCCCCC(CCCCCCCC)COC(=O)CCCCCN(CCCCCC(=O)OCC(CCCCCCCC)CCCCCCCC)C[C@H](O)CN(CC)CCO    793.37
CCCCCCC(CCCCCC)CCOC(=O)CCCCCCN(CCCCCCC(=O)OCCC(CCCCCC)CCCCCC)C[C@H](O)CN(CCO)CCO    866.03
CCCCCCCCCCCOC(=O)CCCCCN(CCCC(=O)OCCCC(CCCCCCCCCC)CCCCCCCCCC)C[C@H](O)CN(CC)CCO    957.07

====

system: 293T cells; test: Cell survival rate determination (CCK-8); type: cell-based; settings: difference of survival rates; comparator YK-313
Readings of cell survival rate higher than YK-313 for the listed compounds
REPORTED_ENDPOINT: cell survival rate higher than YK-313 (%)

CCCCCCCCC(CCCCCCCC)COC(=O)CCCCCN(CCCCCC(=O)OCC(CCCCCCCC)CCCCCCCC)C[C@H](O)CN(C)CCO    13.25
CCCCCCC(CCCCCC)CCOC(=O)CCCCCCN(CCCCCCC(=O)OCCC(CCCCCC)CCCCCC)C[C@H](O)CN(CCO)CCO    6.28
CCCCCCCCC(CCCCCCCC)COC(=O)CCCCCN(CCCCCC(=O)OCC(CCCCCCCC)CCCCCCCC)C[C@H](O)CN(CC)CCO    8.03
CCCCCCCCC(CCCCCCCC)OC(=O)CCCCCN(CCCCCC(=O)OC(CCCCCCCC)CCCCCCCC)C[C@H](O)CN(CCO)CCO    6.63
CCCCCCCCCCCOC(=O)CCCCCN(CCCC(=O)OCCCC(CCCCCCCCCC)CCCCCCCCCC)C[C@H](O)CN(CC)CCO    13.17
